- assay-notes: Solubility of compound of Formula (I) in water, buffers and surfactant solutions
- Type: physicochemical
- experimental-parameters: 59% w/v Poloxamer 188 in pH 3.0 buffer, pH 3, aqueous with cosolvent or surfactant or cyclodextrin, thermodynamic from solid, 59% w/v Poloxamer 188 in pH 3.0 buffer; pH after equilibration 3.30; read-out: Solubility Sample-1
observed-property: solubility (µg/mL)
Hi! Could you send only the number? It should be in µg/mL, unit omitted.

Tell me its solubility given "Cn1c(=O)c2c(ncn2CC(=O)Nc2ccc(-c3ccccc3)nn2)n(C)c1=O" as the entry.
18.7

---

- assay-notes: Solubility of compound of Formula (I) in water, buffers and surfactant solutions
- Format: physicochemical
- experimental-parameters: 59% w/v Poloxamer 188 in pH 3.0 buffer, pH 3, aqueous with cosolvent or surfactant or cyclodextrin, thermodynamic from solid, 59% w/v Poloxamer 188 in pH 3.0 buffer; pH after equilibration 3.30; read-out: Solubility Average (n = 2)
observed-property: solubility

Tell me its solubility given "Cn1c(=O)c2c(ncn2CC(=O)Nc2ccc(-c3ccccc3)nn2)n(C)c1=O" as the entry.
18.3 µg/mL
